assay: Prodrug conversion in phosphate buffer at pH 7.0 assessed as Escherichia coli NTR-mediated decomposition measuring compound remaining at 50 uM after 1 hr by HPLC analysis in presence of NADPH; assay type: physicochemical; settings: pH 7, 1 h
measured.quantity: Stability (%)
Give just the number in %; leave the unit off.

For the compound CN(C)/[N+]([O-])=N/OCc1ccc([N+](=O)[O-])cc1 , what Stability is on record? 60

Another compound to check: O=C(OCc1ccc([N+](=O)[O-])cc1)c1ccccc1 68

One more compound: O=[N+]([O-])c1ccc(CO/N=[N+](\[O-])N2CCCC2)cc1 28

Input CCN(CC)/[N+]([O-])=N/OCc1ccc([N+](=O)[O-])cc1 60

// next record CC1CCCCN1/[N+]([O-])=N/OCc1ccc([N+](=O)[O-])cc1 (stereo not given) 31

* * *

test: Prodrug conversion in phosphate buffer at pH 7.0 assessed as Escherichia coli NTR-mediated decomposition measuring nitric oxide release at 50 uM after 1 hr by chemiluminescence assay in presence of NADPH; assay type: physicochemical; settings: pH 7, 1 h
measured.quantity: Drug metabolism
// unit must come after the numeric part

Could you tell me which Drug metabolism is on file for O=[N+]([O-])c1ccc(CO/N=[N+](\[O-])N2CCCC2)cc1 ? 18.3 µM

Record: O=C(OCc1ccc([N+](=O)[O-])cc1)c1ccccc1 1.1 µM

Proceed to CN(C)/[N+]([O-])=N/OCc1ccc([N+](=O)[O-])cc1 13.6 µM

Do the same for CCN(CC)/[N+]([O-])=N/OCc1ccc([N+](=O)[O-])cc1 please 6.8 µM

What about CC1CCCCN1/[N+]([O-])=N/OCc1ccc([N+](=O)[O-])cc1 (stereo not given) ? 19.7 µM

* * *

experiment: Prodrug conversion in phosphate buffer at pH 7.4 assessed as Escherichia coli NTR-mediated decomposition measuring nitric oxide release at 50 uM after 5 mins; type: physicochemical; details: pH 7.4, 5 min
measured.quantity: Drug metabolism (µM)
Record the value in µM, omitting the unit from your answer.

May I ask what Drug metabolism has been recorded for CC1CCCCN1/[N+]([O-])=N/OCc1ccc([N+](=O)[O-])cc1 (stereo unspecified) ? 17

* * *

tested on: DLD-1; experiment: Antiproliferative activity against human DLD1 cells assessed as cell viability at 75 uM after 72 hrs by MTT assay in presence of Escherichia coli NTR and NADPH relative to control; format: functional; settings: DLD-1, 72 h, read-out: Activity
Record form. Attribute: viability at 75 µM. Fill in for each entry.
Answer with a number only, understood to be in %.

Need viability at 75 µM of CC1CCCCN1/[N+]([O-])=N/OCc1ccc([N+](=O)[O-])cc1 (centres undefined) , thanks. 10.2

Next up: O=[N+]([O-])c1ccc(CO/N=[N+](\[O-])N2CCCC2)cc1 48.5

One more compound: CCN(CC)/[N+]([O-])=N/OCc1ccc([N+](=O)[O-])cc1 27.5

Try this compound too: CN(C)/[N+]([O-])=N/OCc1ccc([N+](=O)[O-])cc1 32.2

Entry source: ChEMBL document CHEMBL2434860
